Entries and their measured TGI follow.
System: LOX IMVI melanoma
Test: NCI tumour cell line growth inhibition, 48 h

Give LOX IMVI melanoma TGI for CCOC(=O)c1csc(NC(=O)CN2CCCCC2)n1 > 100 µM

Give LOX IMVI melanoma TGI for c1ccc2c(c1)Sc1ccccc1N2CCCN1c2ccccc2Sc2ccccc21 > 100 µM

Give LOX IMVI melanoma TGI for N#CC12CCC(O)C(CC1)C2=O (stereo not given) 39.3 µM

Give LOX IMVI melanoma TGI for Cc1cc(Cl)ccc1NC(=O)/C(Cc1nc2ccc(C(=O)c3ccccc3)cc2[nH]c1=O)=N/NC(=O)c1ccncc1 > 100 µM

Give LOX IMVI melanoma TGI for CC1(C)C2CC1C(/C=N\OCC(=O)O)=CC2=O (stereo not given) > 100 µM

Attribution: PubChem BioAssay (NCI)
